test system: SK-MEL-28 melanoma; assay: NCI tumour cell line growth inhibition, 48 h
The entries below come with measured TGI values attached.

[[record]]
molecule = "Cn1cc(C2=C(Nc3ccccc3)C(=O)NC2=O)c2ccccc21"
assay_target = "SK-MEL-28 melanoma"
result = "> 25 µM"

[[record]]
molecule = "CN(CCc1ccccn1)C(=S)N/N=C(\\c1ccccc1)c1ccccn1"
assay_target = "SK-MEL-28 melanoma"
result = "6.01 µM"

[[record]]
molecule = "CCOC(=O)Nc1cc2ccccc2c(N=Nc2ccccc2)c1O"
assay_target = "SK-MEL-28 melanoma"
result = "> 100 µM"

[[record]]
molecule = "COc1ccccc1C1(c2c(OC)c(=O)c2=O)SCCCS1"
assay_target = "SK-MEL-28 melanoma"
result = "> 100 µM"

[[record]]
molecule = "[N-]=[N+]=CC(=O)OCCCCl"
assay_target = "SK-MEL-28 melanoma"
result = "> 100 µM"


Prompt line: Give TGI for O=C(CC1C=Cc2ccccc2N1C(=O)c1ccccc1)c1ccccc1 (stereo not given)
Response line: > 100 µM

Prompt line: Give TGI for `Cc1ccc2c(c1)nc1n2C(N)=Nc2ccccc2S1`
Response line: > 100 µM

Prompt line: Give TGI for `CN(CCNC(=O)c1c[nH]c2c1Cc1ccccc1-2)CCNC(=O)c1c[nH]c2c1Cc1ccccc1-2`
Response line: > 100 µM

Prompt line: Give TGI for C#CC(O)/C=C/CCCCCCC#CC/C=C\CC#CCCCCCCCCC(O)C#C (stereo not given)
Response line: 13.1 µM

Prompt line: Give TGI for CCC(C)C1=C(O)[N+]2([O-])Oc3ccc(-c4c(O)c(O)c(-c5ccc(OC(C)=O)cc5)c(OC(C)=O)c4OC(C)=O)cc3OC2(C(C)CC)C(=O)N1O (stereo not given)
Response line: > 50 µM
